The measured values listed here are drawn from patent US20230176070A1.

Below, each entry is listed with its recorded ELISA affinity (LogIC50 (oD450nm)).
Molecular target: T1, human serum albumin (human, UniProt P02768 25-609)
T1 construct: In the mutant screen wild type HSA came from medium of transfected HeLa cells; also called HSA; wild type HSA
T1 sequence (P02768 25-609 limits assumed): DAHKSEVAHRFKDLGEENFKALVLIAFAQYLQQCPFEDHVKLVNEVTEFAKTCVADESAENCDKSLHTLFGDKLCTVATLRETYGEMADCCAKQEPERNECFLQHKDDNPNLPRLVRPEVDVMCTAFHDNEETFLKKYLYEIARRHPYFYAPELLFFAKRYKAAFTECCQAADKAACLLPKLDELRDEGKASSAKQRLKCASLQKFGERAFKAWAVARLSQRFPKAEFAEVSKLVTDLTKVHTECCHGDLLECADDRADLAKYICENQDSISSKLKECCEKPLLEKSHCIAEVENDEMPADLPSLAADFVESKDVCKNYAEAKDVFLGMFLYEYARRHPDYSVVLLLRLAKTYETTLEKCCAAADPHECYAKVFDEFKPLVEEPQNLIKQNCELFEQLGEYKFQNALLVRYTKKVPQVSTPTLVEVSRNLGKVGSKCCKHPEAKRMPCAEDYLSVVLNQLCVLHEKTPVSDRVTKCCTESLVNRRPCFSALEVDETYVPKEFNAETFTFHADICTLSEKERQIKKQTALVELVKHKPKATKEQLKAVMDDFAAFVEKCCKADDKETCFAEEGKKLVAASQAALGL
Experiment: indirect ELISA, HSA coated
Value type: ELISA affinity (LogIC50 (oD450nm))

Binder: H18 (VHH) VHH: EVQLVESGGGLVQAGGSLRLSCTASGPKDTPYTMGWFRQVPGKEREFVASVLWSGINTDYADSVKGRFAISRNNAKNTMYLQMNSLKPEDTAVYYCAAGYGLGFYRSISQYDYWGHGTQVTVSS
Experimental value: 5.65
--
Binder: H20 (VHH) VHH: EVQLVESGGGLVQAGGSLRLSCTASGPKDTPYTMGWFRQVPGKEREFVASVLWSGINTDYADSVKGRFAISRNNAKNTMYLQMNSLKPEDTAVYYCAAGYGLGFYRTVSQYDYWGHGTQVTVSS
Experimental value: 5.76
--
Binder: H28 (VHH, also called N28) VHH: DVQLVESGGGLAQAGGSLRLSCAASGRTFSNECMGWFRQAPGKEREFVATIRSTGHISYATSVQGRFTVSRDIAKNTVYLEMNNLKPEDTAVYSCGAGVSDYGCYRTSGYNYWGQGTQVTVSS
Experimental value: 5.12
--
Binder: H2 (VHH) VHH: QVQLVESGGGLVQAGGSLRLSCTASGRTFTPYTIGWFRQAPGKEREFVASILWSGINTDYADSVKGRFAISRDNAKNAAYLQMSNLKPEDTAVYYCATGGGLGYYRSVSQYDYWGQGTQVTVSE
Experimental value: 5.88
--
Binder: H7 (VHH) VHH: DVQLVESGGGSVQAGGSLRLSCAASGGTFSSYAMGWYRQAPGKEREFVSGISWSGSSIDYVDSVKGRFTISRDNAKNTVYLQMNSLKPEDTAVYYCGAADPMGLGYGLGPRPVDRLLSAECDYWGQGTQVTVSS
Experimental value: 5.62
--
Binder: H21 (VHH) VHH: QVQLVESGGGLVQAGGSLRLSCAASGYTSGNDAMGWFRQAPGKEREFVGAIRWSGVSTYYADSVKGRFTISRDGAKNTLYLQMNSLKPEDTAVYYCAAKFTGSAWYGVQKLESTYWDYWGQGTQVTVSS
Experimental value: 5.63
